Origin of the recorded values: patent US9517988B2

# Protocol summary: Pharmacokinetic experiment on rats
# Format: in vivo, SD rats
# Condition summary: male, Sprague-Dawley, rat, plasma; Intravenous Injection into Rats (1 mg/kg)
Assay readout: half-life (min)
Note: unit min is implicit; provide only the numeric part.

Previously resolved entries follow.
CC(c1cccc(C(C)C2CC2)c1O)C1CC1 (stereo not shown) [Compound 13, 2,6-bis(1-cyclopropylethyl)phenol]	12
CC(C)c1cccc(C(C)C)c1O [Propofol, reference compound]	42
COc1cccc(C(C)C2CC2)c1O (stereo not shown) [Compound 8, 2-(1-cyclopropylethyl)-6-methoxy-phenol]	48

CC[C@H](C)c1cccc([C@@H](C)C2CC2)c1O [Compound 28] yielded half-life of 18
